# inhibition of SARS-CoV-2 cytopathic effect per record follows
# Test system: Vero E6 infected with SARS-CoV-2
# measurement_notes: inhibition of SARS-CoV-2 cytopathic effect; higher = more antiviral protection, active = above 15
# test_conditions: 100 nM; 48 h
Numbers only; they are read as %.

Use the examples below as a reference point.
| compound | assay_value |
| --- | --- |
| COc1ccc(C(=O)c2ccccc2)c(O)c1 | 0.71 |
| CCC(=O)NO | 1.27 |
| CC(C)C(N)=O [isobutyramide] | 2.22 |
| CC(=O)Nc1ccc(S(=O)(=O)c2ccc(NC(C)=O)cc2)cc1 | -3.82 |

Need inhibition of SARS-CoV-2 cytopathic effect of C[C@]12C=CC(=O)C=C1CC[C@@H]1[C@@H]2[C@@H](O)C[C@@]2(C)[C@H]1CC[C@]2(O)C(=O)COP(=O)(O)O [prednisolone-sodium-phosphate] , thanks.
-8.54

Which inhibition of SARS-CoV-2 cytopathic effect reading was recorded for the compound C=C1C[C@]23C[C@@]1(O)CC[C@H]2[C@@]12C=C[C@H](O)[C@@](C)(C(=O)O1)[C@H]2[C@@H]3C(=O)O ?
1.4

Using the record for CCCCCCCCCCCCCCCCCCCCCC(=O)Nc1ccn([C@@H]2O[C@H](CO)[C@@H](O)[C@@H]2O)c(=O)n1 , report its inhibition of SARS-CoV-2 cytopathic effect.
-1.69

Form field: reported inhibition of SARS-CoV-2 cytopathic effect of Cc1cccc(C)c1NC(=O)CN1CCCCCC1 [pincainide]
-2.63

# lookup: inhibition of SARS-CoV-2 cytopathic effect of C=CC(C)(C)c1cc(/C=C/C(=O)c2ccc(O)cc2)c(OC)cc1O
-0.55

Entry CCCCCCCCCCCCCCCC(=O)O[C@@H]1[C@@H](O)[C@@H](O)[C@@H]([C@H](NC(=O)[C@@H]2C[C@@H](CCC)CN2C)[C@H](C)Cl)O[C@@H]1SC [clindamycin-palmitate] has what inhibition of SARS-CoV-2 cytopathic effect?
-3.02

I'd like to know its inhibition of SARS-CoV-2 cytopathic effect. The compound in question is CCCCC[C@H](O)/C=C/[C@H]1[C@H](O)CC(=O)[C@@H]1CCCCCCC(=O)O
0.04

Give the measured inhibition of SARS-CoV-2 cytopathic effect of C[n+]1c2cc(N)ccc2cc2ccc(N)cc21.Nc1ccc2cc3ccc(N)cc3nc2c1 .
1.04

Item under review: CC1(C)Oc2ccc(C#N)cc2[C@@H](N2CCCC2=O)[C@@H]1O . Reported inhibition of SARS-CoV-2 cytopathic effect?
0.31

Please give the measured inhibition of SARS-CoV-2 cytopathic effect for this compound: C=C1CC[C@@H]2[C@](C)(CO)[C@H](O)CC[C@@]2(C)[C@@H]1C/C=C1/C(=O)OC[C@H]1O [andrographolide]
-0.1

Recorded inhibition of SARS-CoV-2 cytopathic effect of NC[C@H]1O[C@H](O[C@H]2[C@H](O)[C@@H](O[C@H]3O[C@H](CO)[C@@H](O)[C@H](N)[C@H]3O)[C@H](N)C[C@@H]2N)[C@H](N)[C@@H](O)[C@@H]1O , please.
-0.32

Given the entry c1ccc2c(CC3=NCCN3)cccc2c1 , report its measured inhibition of SARS-CoV-2 cytopathic effect.
0.05

* * *

# Tested on: Vero E6 infected with SARS-CoV-2
# measurement_notes: inhibition of SARS-CoV-2 cytopathic effect; higher = more antiviral protection, active = above 15
# test_conditions: 833.33 nM; 48 h
measured_parameter: inhibition of SARS-CoV-2 cytopathic effect (%)
Form entry: value (%) — number only.

Answered examples (2):
| compound | assay_system | assay_value |
| --- | --- | --- |
| O=C(Oc1ccccc1C(=O)O)c1ccccc1O [sasapyrine] | Vero E6 infected with SARS-CoV-2 | -6.28 |
| Cc1c(N)nc([C@H](CC(N)=O)NC[C@H](N)C(N)=O)nc1C(=O)N[C@H](C(=O)N[C@H](C)[C@@H](O)[C@H](C)C(=O)N[C@H](C(=O)NCCc1nc(-c2nc(C(=O)NCCC[S+](C)C)cs2)cs1)[C@@H](C)O)[C@@H](OC1OC(CO)C(O)C(O)C1OC1OC(CO)C(O)C(OC(N)=O)C1O)c1cnc[nH]1 (stereo partly specified) [bleomycin] | Vero E6 infected with SARS-CoV-2 | -11.3 |

# lookup: inhibition of SARS-CoV-2 cytopathic effect of Clc1ccc2c(NCCNc3ccnc4cc(Cl)ccc34)ccnc2c1
0.16

Please give the measured inhibition of SARS-CoV-2 cytopathic effect for this compound: O=[N+]([O-])c1nccn1CC(O)CN1CCCCC1 (stereo unspecified) [pimonidazole]
2.08

I have this compound here, C[N+]12CCCCC1CCC(=C(c1cccs1)c1cccs1)C2 (stereo unspecified) [tiquizium] , and I need its recorded inhibition of SARS-CoV-2 cytopathic effect.
-2.14

Sample C=C1C[C@]23C[C@@]1(O)CC[C@H]2[C@@]12C=C[C@H](O)[C@@](C)(C(=O)O1)[C@H]2[C@@H]3C(=O)O — what was its inhibition of SARS-CoV-2 cytopathic effect?
2.17

inhibition of SARS-CoV-2 cytopathic effect for CN1CCN(C(=O)C2C(C(=O)O)[C@H]3CC[C@@H]2O3)CC1 (stereo partly specified) ?
0.2

* * *

# Tested on: Vero E6 infected with SARS-CoV-2
# measurement_notes: inhibition of SARS-CoV-2 cytopathic effect; higher = more antiviral protection, active = above 15
# test_conditions: 8.33 nM; 48 h
// reported inhibition of SARS-CoV-2 cytopathic effect per item
Write the answer as a number in %, unit excluded.

| compound | assay_value |
| --- | --- |
| O=c1cc(N2CCNCC2)oc2c(-c3ccccc3)cccc12 | -3.07 |
| O=C(O)C(Cl)Cl [dichloroacetate] | 1.34 |
| COc1cc(/C=C/C(=O)CC(=O)/C=C/c2ccc(O)c(OC)c2)ccc1O | -0.65 |
| Cc1ccccc1CN1C(=O)C2=C(CCN(Cc3ccccc3)C2)N2CCN=C12 | 0.83 |

Endpoint output: inhibition of SARS-CoV-2 cytopathic effect of CC(C)NNC(=O)c1ccncc1 . Value?
-0.06

* * *

The molecules listed here are annotated with their inhibition of SARS-CoV-2 cytopathic effect.
# System: Vero E6 infected with SARS-CoV-2
# measurement_notes: inhibition of SARS-CoV-2 cytopathic effect; higher = more antiviral protection, active = above 15
# test_conditions: 10000 nM; 48 h
Return type: number; implicit unit %.

| molecule | assay_value |
| --- | --- |
| CS(=O)(=O)c1ccc(Cn2c3c(c4cc(F)cc(F)c42)CCCC3CC(=O)O)cc1 (stereo not drawn) | -1.55 |

Given N#Cc1ccc(-c2csc(NN=C3CCCC3)n2)cc1 , state its recorded inhibition of SARS-CoV-2 cytopathic effect.
0.34

Looking for the measured inhibition of SARS-CoV-2 cytopathic effect of CC(C)(C)c1ccc(S(=O)(=O)NCc2ccc(C(=O)Nc3cccnc3)cc2)cc1 , can you help?
-10.9

Given C[N@+]1(CC2CC2)CC[C@]23c4c5ccc(O)c4O[C@H]2C(=O)CC[C@@]3(O)[C@H]1C5 [methylnaltrexone] , state its recorded inhibition of SARS-CoV-2 cytopathic effect.
1.64

Consider the molecule C=CCn1c(=O)c2cnc(Nc3ccc(N4CCN(C)CC4)cc3)nc2n1-c1cccc(C(C)(C)O)n1 and give its measured inhibition of SARS-CoV-2 cytopathic effect.
-6.53

// lookup inhibition of SARS-CoV-2 cytopathic effect for O=C1C(=C(O)/C=C/c2ccc(O)cc2)C(=O)[C@@](O)([C@@H]2O[C@H](CO)[C@@H](O)[C@H](O)[C@H]2O)C(=O)[C@H]1[C@@H]1O[C@H](CO)[C@@H](O)[C@H](O)[C@H]1O
-2.44

Please report the recorded inhibition of SARS-CoV-2 cytopathic effect for CN/C(=N\S(=O)(=O)c1ccc(Cl)cc1)N1C[C@H](c2ccccc2)C(c2ccc(Cl)cc2)=N1 (racemic) .
-3.73

Can you look up the measured inhibition of SARS-CoV-2 cytopathic effect of NS(=O)(=O)Cc1noc2ccccc12 [zonisamide] for me?
-2.23

* * *

# Test system: Vero E6 infected with SARS-CoV-2
# measurement_notes: inhibition of SARS-CoV-2 cytopathic effect; higher = more antiviral protection, active = above 15
# test_conditions: 833.33 nM; 48 h
Structures can show the parent of a compound that is named as a salt.
measured_parameter: inhibition of SARS-CoV-2 cytopathic effect (%)
Output spec: scalar in %, unitless text.

Worked examples, 8 compounds total:
| compound | assay_system | assay_value |
| --- | --- | --- |
| CC(C)Oc1cccc(-n2c(CCc3c[nH]c4ccc(Br)cc34)nc3ccccc3c2=O)c1 | Vero E6 infected with SARS-CoV-2 | 0.14 |
| O=C(Nc1ccc(OC(F)(F)F)cc1)c1sccc1NCc1ccnc2ccccc12 | Vero E6 infected with SARS-CoV-2 | 4.77 |
| CO[C@@]1(NC(=O)C2SC(=C(C(N)=O)C(=O)O)S2)C(=O)N2C(C(=O)O)=C(CSc3nnnn3C)CS[C@@H]21 (stereo not given in full) | Vero E6 infected with SARS-CoV-2 | -0.94 |
| CC(C)(N)c1cc(C(=O)N[C@@H]2CCc3ccc(Oc4ccnc5c4CCC(=O)N5)cc3C2)cc(C(F)(F)F)c1 | Vero E6 infected with SARS-CoV-2 | -3.12 |
| O=C(Nc1cnn2ccc(N3CCC[C@@H]3c3cc(F)ccc3F)nc12)N1CC[C@H](O)C1 | Vero E6 infected with SARS-CoV-2 | -0.49 |
| O=[N+]([O-])c1cc(Cl)ccc1S(=O)(=O)N1CCN(Cc2ccccc2)CC1 | Vero E6 infected with SARS-CoV-2 | 3.68 |
| CC(=O)O[C@]1(C(C)=O)CC[C@H]2[C@@H]3C=C(C)C4=CC(=O)CC[C@]4(C)[C@H]3CC[C@@]21C [megestrol-acetate] | Vero E6 infected with SARS-CoV-2 | -0.54 |
| NCCCC[C@H](NC(=O)[C@@H]1CCCN1C(=O)[C@@H]1CSSC[C@H](N)C(=O)N[C@@H](Cc2ccc(O)cc2)C(=O)N[C@@H](Cc2ccccc2)C(=O)N[C@@H](CCC(N)=O)C(=O)N[C@@H](CC(N)=O)C(=O)N1)C(=O)NCC(N)=O | Vero E6 infected with SARS-CoV-2 | 1.65 |

I am curious: what inhibition of SARS-CoV-2 cytopathic effect value has been reported for CO/N=C(\C(=O)N[C@@H]1C(=O)N2C(C(=O)O)=C(Cn3ccc(=N)n3CCO)CS[C@H]12)c1csc(N)n1 [Cefoselis sulfate] ?
-1.56

What value of inhibition of SARS-CoV-2 cytopathic effect has been reported for the following compound? CC/C(=C(/c1ccc(OCCN(C)C)cc1)c1cccc(O)c1)c1ccccc1
0.64

The reported numbers originate from the supplement of paper PMC13380429.
